Listed here: items and their measured inhibition.
target: CDK2 (UniProt P24941); assay: Enzyme Assay; details: concentration not given here
I only need the number, in %, no unit after it.

* O=[N+]([O-])c1ccccc1S(=O)(=O)Nc1ccc2[nH]nc(-c3ccccc3)c2c1 | 81
* CC(=O)c1ccc(-c2n[nH]c3ccc(NS(=O)(=O)c4ccccc4S(C)(=O)=O)cc23)cc1 | 56
* CNc1n[nH]c2ccc(NS(=O)(=O)c3ccccc3S(C)(=O)=O)cc12 | 51
* O=S(=O)(Nc1ccc2[nH]nc(-c3ccc(O)cc3)c2c1)c1ccccc1 | 89
* CCc1ccc(-c2n[nH]c3ccc(NS(=O)(=O)c4ccccc4S(C)(=O)=O)cc23)cc1 | 65
* N#Cc1ccccc1S(=O)(=O)Nc1ccc2[nH]nc(-c3ccccc3)c2c1 | 69
* O=S(=O)(Nc1ccc2[nH]nc(-c3ccccc3)c2c1)C1CCNCC1 | 13
* COc1ccc(-c2n[nH]c3ccc(NS(=O)(=O)c4ccccc4S(C)(=O)=O)cc23)cc1 | 93
* O=S(=O)(Nc1ccc2[nH]nc(-c3ccccc3)c2c1)c1cccc2nonc12 | 67
* CC(C)c1cc(C(C)C)c(S(=O)(=O)Nc2ccc3[nH]nc(-c4ccccc4)c3c2)c(C(C)C)c1 | 50

// moving on: another record for inhibition
Consider the compound `Cc1ccc(-c2n[nH]c3ccc(NS(=O)(=O)c4ccccc4S(C)(=O)=O)cc23)cc1` and give its measured inhibition.
66

----------
In this section, each of the molecules is paired with its reported inhibition.
target: CDK2 (UniProt P24941); assay: Enzyme Assay; settings: concentration not given here
Give your result in % as a bare value.

These recorded examples may help you get a feel for the data.
• CS(=O)(=O)c1ccccc1S(=O)(=O)Nc1ccc2[nH]nc(-c3ccccc3N)c2c1 = 50
• O=S(=O)(Nc1ccc2[nH]nc(-c3ccccc3)c2c1)c1ccccc1 = 84
• O=S(=O)(Nc1ccc2[nH]nc(-c3cc4ccccc4[nH]3)c2c1)c1cccc(F)c1 = 99

Any idea what inhibition was measured for `COc1ccc(-c2n[nH]c3ccc(NS(=O)(=O)c4ccccc4S(C)(=O)=O)cc23)cc1OC` ?
76

# query: inhibition of entry `Nc1cc(Cl)cc(Cl)c1S(=O)(=O)Nc1ccc2[nH]nc(-c3ccccc3)c2c1`
58

// inhibition lookup, key: `CS(=O)(=O)c1ccccc1S(=O)(=O)Nc1ccc2[nH]nc(-c3cccc([N+](=O)[O-])c3)c2c1`
82

For the molecule shown here, `O=S(=O)(Nc1ccc2[nH]nc(-c3ccccc3)c2c1)c1cccs1` , give the reported inhibition.
80

So what does the record say about inhibition for `CS(=O)(=O)c1ccc(-c2n[nH]c3ccc(NS(=O)(=O)c4ccccc4S(C)(=O)=O)cc23)cc1` ?
75

Data request, read-out inhibition, for `O=[N+]([O-])c1ccc(S(=O)(=O)Nc2ccc3[nH]nc(-c4ccccc4)c3c2)cc1`
50

----------
Measured inhibition accompanies every entry in the list below.
target: CDK2 (UniProt P24941); test: Enzyme Assay; conditions: concentration not given here
State the value, then name its unit.

- CS(=O)(=O)c1ccccc1S(=O)(=O)Nc1ccc2[nH]nc(-c3cc(F)cc(F)c3)c2c1: 74%
- CS(=O)(=O)c1ccccc1S(=O)(=O)Nc1ccc2[nH]nc(-c3ccc(C(F)(F)F)cc3)c2c1: 83%
- CSc1ccccc1-c1n[nH]c2ccc(NS(=O)(=O)c3ccccc3S(C)(=O)=O)cc12: 19%
- CN(C)c1ccc(-c2n[nH]c3ccc(NS(=O)(=O)c4ccccc4S(C)(=O)=O)cc23)cc1: 81%
- CS(=O)(=O)c1ccccc1S(=O)(=O)Nc1ccc2[nH]nc(-c3cccc(Cl)c3Cl)c2c1: 0%

State its inhibition on CDK2 (UniProt P24941): `COc1ccc(-c2n[nH]c3ccc(NS(=O)(=O)c4ccccc4S(C)(=O)=O)cc23)c(OC)c1OC`
21%

Param readout = inhibition; param system = CDK2 (UniProt P24941); param query = `CS(=O)(=O)c1ccccc1S(=O)(=O)Nc1ccc2[nH]nc(-c3ccc(Br)cc3F)c2c1` ; response: value
65%

Form: Entry = `Cc1cc(C)cc(-c2n[nH]c3ccc(NS(=O)(=O)c4ccccc4S(C)(=O)=O)cc23)c1` | System = CDK2 (UniProt P24941) | inhibition = ____
72%

Value wanted: inhibition (CDK2 (UniProt P24941)) of entry `COc1cccc(S(=O)(=O)Nc2ccc3[nH]nc(-c4ccccc4)c3c2)c1`
68%

Param readout = inhibition; param system = CDK2 (UniProt P24941); param query = `CS(=O)(=O)c1ccccc1S(=O)(=O)Nc1ccc2[nH]nc(-c3ccc(Br)cc3)c2c1` ; response: value
75%

For the record `O=C(O)c1cccc(S(=O)(=O)Nc2ccc3[nH]nc(-c4ccccc4)c3c2)c1` , what value of inhibition is listed for CDK2 (UniProt P24941)?
40%

----------
target: CDK2 (UniProt P24941); test: Enzyme Assay; conditions: concentration not given here
assay.endpoint: inhibition (%)
Only the number, expressed in %, is required.

* CS(=O)(=O)c1ccccc1S(=O)(=O)Nc1ccc2[nH]nc(NCc3ccccc3)c2c1 | 92

Value lookup for inhibition; key = `CS(=O)(=O)c1ccccc1S(=O)(=O)Nc1ccc2[nH]nc(-c3cccc(F)c3)c2c1`
69

Param item = `O=S(=O)(Nc1ccc2[nH]nc(-c3ccccc3)c2c1)c1cccc2ccccc12` ; retrieve measured inhibition.
90

----------
target: CDK2 (UniProt P24941); assay: Enzyme Assay; settings: concentration not given here
Listing of entries alongside the reported inhibition.
Just the number please, in %, no unit attached.

Observe how each entry below is paired with its result.
• Cc1cccc(-c2n[nH]c3ccc(NS(=O)(=O)c4ccccc4S(C)(=O)=O)cc23)c1 = 71
• CS(=O)(=O)c1ccccc1S(=O)(=O)Nc1ccc2[nH]nc(-c3ccc[nH]3)c2c1 = 99

Quick one: inhibition for `O=S(=O)(Nc1ccc2[nH]nc(-c3ccccc3)c2c1)c1ccc(F)cc1` ?
56

Which value of inhibition has been reported for `COc1ccc(OC)c(S(=O)(=O)Nc2ccc3[nH]nc(-c4ccccc4)c3c2)c1` in the records?
51

----------
target: CDK2 (UniProt P24941); assay: Enzyme Assay; conditions: concentration not given here
assay.endpoint: inhibition (%)
Give a bare numeral; the unit % is implied.

Examples with their reported inhibition follow.
- CC(=O)Nc1n[nH]c2ccc(NS(=O)(=O)c3cc(F)cc(F)c3)cc12: 82
- Cc1cc(-c2n[nH]c3ccc(NS(=O)(=O)c4ccccc4S(C)(=O)=O)cc23)ccc1F: 66
- CS(=O)(=O)c1ccccc1S(=O)(=O)Nc1ccc2[nH]nc(-c3ccccc3Cl)c2c1: 52
- CSc1ccc(-c2n[nH]c3ccc(NS(=O)(=O)c4ccccc4S(C)(=O)=O)cc23)cc1: 84

// lookup inhibition for `CS(=O)(=O)c1ccccc1S(=O)(=O)Nc1ccc2[nH]nc(Sc3ccccc3)c2c1`
82
